Reference source for all entries: PubChem BioAssay

# assayed-target: Alpha-2C adrenergic receptor (Homo sapiens) (UniProt P18825)
# Sequence (P18825 whole entry, looked up): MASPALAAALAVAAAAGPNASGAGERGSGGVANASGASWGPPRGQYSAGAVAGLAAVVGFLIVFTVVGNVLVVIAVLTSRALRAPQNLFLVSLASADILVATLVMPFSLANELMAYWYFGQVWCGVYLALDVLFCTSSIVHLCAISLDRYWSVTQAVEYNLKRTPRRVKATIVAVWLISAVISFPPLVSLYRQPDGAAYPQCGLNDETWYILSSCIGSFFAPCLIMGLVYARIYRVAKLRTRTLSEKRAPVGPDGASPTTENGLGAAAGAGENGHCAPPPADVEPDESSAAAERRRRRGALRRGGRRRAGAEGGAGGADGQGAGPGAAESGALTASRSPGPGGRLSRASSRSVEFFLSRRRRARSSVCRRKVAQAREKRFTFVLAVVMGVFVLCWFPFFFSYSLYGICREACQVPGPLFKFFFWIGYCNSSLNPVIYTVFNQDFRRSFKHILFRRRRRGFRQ
# measurement-description: modulators of alpha2C/GIRK thallium flux, primary screen, cell-based, HEK293 alpha2C/GIRK1/2 (AID 624);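 also: slope of fluorescence ratio to pre-addition baseline per second over 15 to 24 s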
# experimental-context: thallium flux BTC fluorescence, at 10 µM, actives lie on both sides
Listed here are compounds together with their documented slope.
Just the number.

Field: example entries. Status: answers known.
For COc1ccc(C(=O)C(CN2CCCC2)c2ccccc2)cc1 (stereo not drawn) the compound record lists slope as 0.00506

For "c1coc(-c2nc3nc4ccccc4nc3n2-c2ccc3c(c2)OCCO3)c1" the compound record lists slope as 0.00503

---
For "CC(=O)Nc1cnc2ccccc2n1" the compound record lists slope as 0.00508

###

# measurement-description: inhibitors of poly I:C-induced TLR3 signaling, primary screen, cell-based, poly I:C stimulus, luciferase, 10K MLSCN set (AID 602277)
# experimental-context: HEK293-TLR3 RL24 IRF3 luciferase reporter, at 10 µM, stronger effect = higher value
Think of 30% as a floor: if inhibition stands on it or above, it is class 1; beneath it, class 0.

QUERY: // inclusive: inhibition at least 30%? input: "CCC(NC(=O)Nc1cc(OC)c(OC)c(OC)c1)(C(F)(F)F)C(F)(F)F"
RESULT: class 0

QUERY: // inclusive: inhibition at least 30%? input: "NCc1ccc(S(N)(=O)=O)cc1"
RESULT: class 1

QUERY: // inclusive: inhibition at least 30%? input: "Cc1onc(-c2ccccc2)c1C(=O)N[C@@H]1C(=O)N2[C@@H]1SC(C)(C)[C@@H]2C(=O)O"
RESULT: class 0

---
QUERY: // inclusive: inhibition at least 30%? input: "CC(=O)O[C@]1(C(C)=O)CC[C@H]2[C@@H]3C=C(C)C4=CC(=O)CC[C@]4(C)[C@H]3CC[C@@]21C"
RESULT: class 1

QUERY: // inclusive: inhibition at least 30%? input: "CCCSc1ccc2nc(NC(=O)OC)[nH]c2c1"
RESULT: class 0

QUERY: // inclusive: inhibition at least 30%? input: "CC1(C)O[C@@H]2C[C@H]3[C@@H]4C[C@H](F)C5=CC(=O)CC[C@]5(C)[C@H]4[C@@H](O)C[C@]3(C)[C@]2(C(=O)CO)O1"
RESULT: class 0

QUERY: // inclusive: inhibition at least 30%? input: "C/C(=C\C(=O)O)CC(=O)O"
RESULT: class 0

QUERY: // inclusive: inhibition at least 30%? input: "C=CCOc1nc2c(c(=O)n(C)c(=O)n2C)n1Cc1c(Cl)cccc1Cl"
RESULT: class 0

QUERY: // inclusive: inhibition at least 30%? input: "CCCn1c(=O)c2[nH]c(C3CCCC3)nc2n(CCC)c1=O"
RESULT: class 1

###

# assayed-target: Voltage-gated potassium channel subunit beta-2 (Rattus norvegicus)
# measurement-description: KvBeta positive modulators, primary screen, biochemical, NADPH fluorescence (AID 623);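 also: fluorescence intensity change per second fitted from 20 to 320 s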
# experimental-context: Recombinant KvBeta, NADPH fluorescence decrease slope, 10 min; at 10 µM; stronger effect = lower value
property-label: NADPH fluorescence slope
Just the number.

Field: example entries. Status: answers known.
For "CCS(=O)(=O)CCn1c([N+](=O)[O-])cnc1C" the compound record lists NADPH fluorescence slope as -8.1e-05

For "N#CC1=C(N)NC(SCc2ccc(Cl)cc2)=C(C#N)C12CCCCC2" the compound record lists NADPH fluorescence slope as -5.9e-05

For "Nc1nnc(Cc2ccc(Cl)c(Cl)c2)s1" the compound record lists NADPH fluorescence slope as -3.6e-05

For "COc1ccc(/C=N/n2cncn2)cc1CSc1ccccn1" the compound record lists NADPH fluorescence slope as 9e-06

For "CCc1c(C)c(C#N)c2nc3ccccc3n2c1-n1nc(C)cc1C" the compound record lists NADPH fluorescence slope as -7.9e-05

For "C#CCN(C)Cc1ccccc1" the compound record lists NADPH fluorescence slope as -3.5e-05

For Cc1cccc(C)c1OCC(O)CNS(=O)(=O)c1ccccc1C(=O)N1CCCCC1 (stereo not drawn) the compound record lists NADPH fluorescence slope as -7e-05

For O=C(O)CC1Sc2nc3ccccc3n2C1=O (stereo not drawn) the compound record lists NADPH fluorescence slope as -1.3e-05

For Cc1c(/C(O)=C2\C(=O)C(=O)N(CCCN(C)C)C2c2ccccc2)cnn1-c1ccccc1 (stereo not drawn) the compound record lists NADPH fluorescence slope as -2.7e-05

For "CCCCNC(=O)N(C)c1nncnc1C(=O)NC" the compound record lists NADPH fluorescence slope as -2.2e-05

---
For "Clc1ccccc1-c1nnc2sc(-c3ccco3)nn12" the compound record lists NADPH fluorescence slope as -4.6e-05

For "N#Cc1nc(-c2cccs2)oc1NCCc1ccccc1" the compound record lists NADPH fluorescence slope as 1.7e-05

For c1ccc2c(NCC3CCCO3)nc(-c3ccncc3)nc2c1 (stereo not drawn) the compound record lists NADPH fluorescence slope as -3.7e-05

For CCOC(=O)C1CSc2[nH]c(=O)sc2C1c1ccccc1 (stereo not drawn) the compound record lists NADPH fluorescence slope as -6.9e-05

For COc1cccc(OC)c1OCC(C)CNCC1CCCO1 (stereo not drawn) the compound record lists NADPH fluorescence slope as -5e-05

For CC(C(=O)N1CCOCC1)N1C(=O)c2ccccc2C1=O (stereo not drawn) the compound record lists NADPH fluorescence slope as 2.4e-06

For "Cc1c([C@H]2[C@@H](CC#N)C2(C)C)c2ccccc2n1C" the compound record lists NADPH fluorescence slope as -9.2e-05

For "c1ccc(CN2CCN(c3nc(-c4ccccn4)nc4ccccc34)CC2)cc1" the compound record lists NADPH fluorescence slope as 4.9e-06

For "C=CCSc1nnc2n(CCc3ccccc3)c(=O)c3c4c(sc3n12)COC(C)(C)C4" the compound record lists NADPH fluorescence slope as -1.2e-05

For "COc1ccc(CCn2c(=N)c(C(=O)NCc3ccco3)cc3c(=O)n4ccccc4nc32)cc1" the compound record lists NADPH fluorescence slope as -1.6e-05

For "CN1CCN(C(=O)CSc2nc(-c3ccncc3)ccc2C#N)CC1" the compound record lists NADPH fluorescence slope as -5e-05

For "CN1CCN(c2nc3c(c(=O)n(C)c(=O)n3C)n2Cc2cccc3ccccc23)CC1" the compound record lists NADPH fluorescence slope as -6.9e-05

For "COc1ccc2c(C)nc(Nc3nc(C)cc(C)n3)nc2c1" the compound record lists NADPH fluorescence slope as -1e-05

###

# measurement-description: inhibitors of E-selectin induction by TNFa, primary screen, imaging, HUVEC, immunofluorescence, MLSMR starter and 10KST1 sets (AID 487);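 also: signal is fraction of cell area covered by stained E-selectin grains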
# experimental-context: HUVEC TNFalpha-induced E-selectin immunofluorescence imaging, at 2 µM; stronger effect = higher value
property-label: inhibition (%)
Report only the number, with the unit % understood.

Field: example entries. Status: answers known.
For Cc1cc(/C(O)=C2\C(=O)C(=O)N(CCN(C)C)C2c2ccncc2)ccc1OCc1ccccc1 (stereo unspecified) the compound record lists inhibition as 9.6

For "Clc1ccc(-c2nnc3sc(Cc4cccs4)nn23)cc1" the compound record lists inhibition as -156

For "Cc1nc(-c2cn[nH]c2)c2cc(C)oc2n1" the compound record lists inhibition as -51.1

For COC(=O)c1[nH]c(C)c(/C(O)=C2\C(=O)C(=O)N(CCN3CCOCC3)C2c2cccnc2)c1C (stereo unspecified) the compound record lists inhibition as -2.2

For "CCCC(=O)Nn1cnc2c(c1=O)C1(CCCC1)Cc1ccccc1-2" the compound record lists inhibition as -157

---
For "CCOc1ccc(-c2nn3c(-c4ccc(OC)cc4)nnc3s2)cc1" the compound record lists inhibition as -58.9

For COc1ccc(/C(O)=C2/C(=O)C(=O)N(CCCN(C)C)C2c2ccccc2)cc1OC (stereo unspecified) the compound record lists inhibition as -317

For "Cn1c(OCc2ccc3c(c2)OCO3)nc2c1c(=O)n(Cc1cccc(Cl)c1)c(=O)n2C" the compound record lists inhibition as -35.9

For O=C1C=C(O)CC(c2cccs2)C1 (stereo unspecified) the compound record lists inhibition as -11.9

For "Cc1nc(Nc2ncc3c(n2)CC(C)(C)CC3=O)nc2ccccc12" the compound record lists inhibition as -13

For "Cc1ccc(-n2c(N)c(C(N)=O)sc2=S)cc1" the compound record lists inhibition as -12.7

For "CCCCn1c(C)cc2cc(O)ccc21" the compound record lists inhibition as -73.6

For "CC(=O)Nc1cc2c(cc1Br)OCCO2" the compound record lists inhibition as -80.8

For "N#CCSc1nc2sc3c(c2c(=O)n1C1CCCCC1)CCCC3" the compound record lists inhibition as 9.7

For "COc1cccc(-c2nc(N3CCN(Cc4ccccc4)CC3)c3ccccc3n2)c1O" the compound record lists inhibition as 7

For "CC(=O)c1c(C)c2c(n1CCN(C)C)CCCC2" the compound record lists inhibition as 17.6

For "Cc1cc(-c2cc(-c3ccc(Cl)cc3)nc(N)c2C#N)co1" the compound record lists inhibition as 62.4

For "Cc1ccc2[nH]c3c(N4CCCCCC4)ncnc3c2c1" the compound record lists inhibition as -85.7

For "O=C1C=C(NCCNc2c(F)c(F)c(CO)c(F)c2F)CCC1" the compound record lists inhibition as -87.2

For Cc1ccc(SCc2[nH]nc3c2C(c2ccc(C)o2)C(C#N)=C(N)O3)cc1 (stereo unspecified) the compound record lists inhibition as -2.7
